Test system: 786-0 renal
PROCEDURE_TEXT: NCI tumour cell line growth inhibition, 48 h
MEASURED_METRIC: TGI

# input compound: CCSc1[nH]c(Nc2nc(-c3ccccc3)n(-c3ccccc3)n2)c(C(N)=O)c1C(N)=O ; wanted: its TGI
> 10 µM

Which TGI value belongs to COc1cccc2c1C(=O)c1c(O)c3c(c(O)c1C2=O)CC(O)(/C(C)=N/NC(=O)CCC(=O)N/N=C(\C)C1(O)Cc2c(O)c4c(c(O)c2C(OC2CC(N)C(O)C(C)O2)C1)C(=O)c1c(OC)cccc1C4=O)CC3OC1CC(N)C(O)C(C)O1 (stereo not drawn) ?
1.06 µM

Value lookup for TGI; key = CS(=O)(=O)CCCn1c(=O)c(Oc2ccc(F)cc2F)cc2cnc(NC3CCOCC3)nc21
> 25 µM

For O=c1c2c(-c3ccccc3)onc2n(-c2ccccc2)c(=O)n1-c1ccccc1 , what is its reported TGI?
> 100 µM

Value lookup for TGI; key = C[C@H]1C2Cc3cc(N)ccc3[C@@]1(C)CCN2CCc1ccccc1
> 100 µM

Requested read-out: TGI. Entry: O=C(CCc1cc(O)cc(O)c1)NCCc1cc(O)cc(O)c1
> 100 µM

Please give the measured TGI for this compound: N#C/C=C(\c1ccc([N+](=O)[O-])cc1)n1nnc2cc(Cl)c(Cl)cc21
3.58 µM

Looking for the measured TGI of CCOC(=O)c1ccc(C(=O)/C(C#N)=C2\CCCN2C)[nH]1 , can you help?
> 100 µM

These data points were gathered from PubChem BioAssay (NCI).
